Values compiled from patent US20060264460A1.

Molecular target: human Cot/Tpl2 kinase (Homo sapiens)
Construct: human Cot/Tpl2 kinase construct encoding residues 30-398; 6His (N); made in house; host or cells: Sf9 insect cells, baculovirus system (BD Biosciences)
Assay: Tpl2/Cot kinase assay: GST-MEK1 phosphorylation detected by ELISA (DELFIA Eu)
Type: biochemical
Conditions: Tpl2/Cot kinase, GST-MEK1 substrate, 50 uM ATP
Collected IC50 values appear next to each entry.
quantity_kind: IC50 (nM)

[[record]]
molecule = "CC(C)(C)OC(=O)N1CCCC(Cn2cc(CNc3cc(Cl)c4ncc(C#N)c(Nc5ccc(F)c(Cl)c5)c4c3)nn2)C1 (stereo not drawn) [Example 714]"
qual = "="
measured_result = 250

[[record]]
molecule = "CC(=O)N1CCC[C@@H]1Cn1cc(CNc2cc(Cl)c3ncc(C#N)c(Nc4ccc(F)c(Cl)c4)c3c2)nn1 [Example 898]"
qual = "="
measured_result = 0.2

[[record]]
molecule = "CC(C)(C)OC(=O)N1CCCC1Cn1cc(CNc2cc(Cl)c3ncc(C#N)c(Nc4ccc(F)c(Cl)c4)c3c2)nn1 (stereo not drawn) [Example 716]"
qual = "="
measured_result = 320

[[record]]
molecule = "CN(C)CC1CCCCC1Nc1cc(Cl)c2ncc(C#N)c(Nc3ccc(F)c(Cl)c3)c2c1 (stereo not drawn) [Example 646]"
qual = ">"
measured_result = 3000

[[record]]
molecule = "CC(C)N1CCC(CCn2cc(CNc3cc(Br)c4ncc(C#N)c(Nc5ccc(F)c(Cl)c5)c4c3)nn2)CC1 [Example 738]"
qual = "="
measured_result = 57

[[record]]
molecule = "N#Cc1cnc2c(Cl)cc(NCc3cn(CC(=O)N4CCCCCCC4)nn3)cc2c1Nc1ccc(F)c(Cl)c1 [Example 815]"
qual = "="
measured_result = 5.3

[[record]]
molecule = "CN(C)CCC(c1cccnc1)n1cc(CNc2cc(Cl)c3ncc(C#N)c(Nc4ccc(F)c(Cl)c4)c3c2)nn1 (stereo not drawn) [Example 759]"
qual = "="
measured_result = 36

[[record]]
molecule = "CCN1CCC[C@H]1Cn1cc(CNc2cc(Cl)c3ncc(C#N)c(Nc4ccc(F)c(Cl)c4)c3c2)nn1 [Example 895]"
qual = "="
measured_result = 10

[[record]]
molecule = "CC(C)n1cnc(CNc2cc(Br)c3ncc(C#N)c(Nc4ccc(F)c(Cl)c4)c3c2)c1 [Example 804]"
qual = "="
measured_result = 68

[[record]]
molecule = "N#Cc1cnc2c(Cl)cc(NCCNS(=O)(=O)c3ccccc3)cc2c1Nc1ccc(F)c(Cl)c1 [Example 854]"
qual = "="
measured_result = 1960

[[record]]
molecule = "CC(=O)N1CCC(CN(C(C)=O)c2cc(Cl)c3ncc(C#N)c(Nc4ccc(F)c(Cl)c4)c3c2)CC1 [Example 865]"
qual = "="
measured_result = 380

[[record]]
molecule = "N#Cc1cnc2c(Cl)cc(NCC(=O)NCc3ccncc3)cc2c1Nc1ccc(F)c(Cl)c1 [Example 772]"
qual = "="
measured_result = 48

[[record]]
molecule = "CN(C)C(=O)OCCCn1cc(CNc2cc(Cl)c3ncc(C#N)c(Nc4ccc(F)c(Cl)c4)c3c2)nn1 [Example 750]"
qual = "="
measured_result = 16

[[record]]
molecule = "N#Cc1cnc2ccc(NC3CCN(Cc4ccccc4)CC3)cc2c1Nc1ccc(F)c(Cl)c1 [Example 657]"
qual = "="
measured_result = 1700

[[record]]
molecule = "CN1CCN(CCCn2cc(CNc3cc(Cl)c4ncc(C#N)c(Nc5ccc(F)c(Cl)c5)c4c3)nn2)CC1 [Example 796]"
qual = "="
measured_result = 39


###

Target: human Cot/Tpl2 kinase (Homo sapiens, UniProt P41279)
Construct: human Cot/Tpl2 kinase construct encoding residues 30-398; 6His (N); made in house; host or cells: Sf9 insect cells, baculovirus system (BD Biosciences)
Sequence (P41279 30-398): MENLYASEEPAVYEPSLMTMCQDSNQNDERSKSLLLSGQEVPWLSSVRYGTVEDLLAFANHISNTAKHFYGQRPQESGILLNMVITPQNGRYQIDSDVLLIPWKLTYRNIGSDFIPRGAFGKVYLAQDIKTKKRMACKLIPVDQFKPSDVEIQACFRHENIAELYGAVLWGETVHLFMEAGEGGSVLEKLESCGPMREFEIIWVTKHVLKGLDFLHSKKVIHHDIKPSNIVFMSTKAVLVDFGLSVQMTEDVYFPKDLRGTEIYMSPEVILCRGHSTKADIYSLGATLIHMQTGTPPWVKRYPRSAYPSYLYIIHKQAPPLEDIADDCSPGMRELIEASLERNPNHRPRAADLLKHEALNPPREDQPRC
Test: Tpl2/Cot kinase assay: GST-MEK1 phosphorylation detected by ELISA (DELFIA Eu)
Format: biochemical
Details: 0.4 nM Tpl2, 35 nM GST-MEK1, 50 uM ATP, 1 h at 30° C.
Classify on IC50 using class 1: < 100 nM; class 2: ≥ 100 nM and < 900 nM; class 3: ≥ 900 nM

[[record]]
structure_notation = "CN(C)Cc1cc(NCc2cccnc2)cc2c(Nc3cccc(Br)c3)c(C#N)cnc12"
experimental_target = "human Cot/Tpl2 kinase (Homo sapiens, UniProt P41279)"
answer_label = "class 3"

[[record]]
structure_notation = "N#Cc1cnc2c(Cl)cc(NCCc3cnc[nH]3)cc2c1Nc1ccc(F)c(Cl)c1"
experimental_target = "human Cot/Tpl2 kinase (Homo sapiens, UniProt P41279)"
answer_label = "class 2"

[[record]]
structure_notation = "N#Cc1cnc2ccc(NCc3nccn3CC(=O)O)cc2c1Nc1ccc(F)c(Cl)c1"
experimental_target = "human Cot/Tpl2 kinase (Homo sapiens, UniProt P41279)"
answer_label = "class 1"

[[record]]
structure_notation = "N#Cc1cnc2c(C(F)(F)F)cc(NCc3cncs3)cc2c1Nc1ccc(F)c(Cl)c1"
experimental_target = "human Cot/Tpl2 kinase (Homo sapiens, UniProt P41279)"
answer_label = "class 2"

[[record]]
structure_notation = "N#Cc1cnc2ccc(NCc3cnc[nH]3)cc2c1Nc1ccncc1"
experimental_target = "human Cot/Tpl2 kinase (Homo sapiens, UniProt P41279)"
answer_label = "class 3"

[[record]]
structure_notation = "N#Cc1cnc2c(Br)cc(NCc3cnc[nH]3)cc2c1NC1CCCCCC1"
experimental_target = "human Cot/Tpl2 kinase (Homo sapiens, UniProt P41279)"
answer_label = "class 2"

[[record]]
structure_notation = "CN(C)C(=O)c1ccc2cc(CNc3ccc4ncc(C#N)c(Nc5ccc(F)c(Cl)c5)c4c3)[nH]c2c1"
experimental_target = "human Cot/Tpl2 kinase (Homo sapiens, UniProt P41279)"
answer_label = "class 3"

[[record]]
structure_notation = "CS(=O)(=O)c1cc(NCc2cnc[nH]2)cc2c(Nc3ccc(F)c(Cl)c3)c(C#N)cnc12"
experimental_target = "human Cot/Tpl2 kinase (Homo sapiens, UniProt P41279)"
answer_label = "class 2"

[[record]]
structure_notation = "N#Cc1cnc2c(Cl)cc(NCc3cccnc3)cc2c1Nc1ccc(F)c(Cl)c1"
experimental_target = "human Cot/Tpl2 kinase (Homo sapiens, UniProt P41279)"
answer_label = "class 1"

[[record]]
structure_notation = "N#Cc1cnc2ccc(NCc3cnc[nH]3)cc2c1Nc1cccnc1"
experimental_target = "human Cot/Tpl2 kinase (Homo sapiens, UniProt P41279)"
answer_label = "class 3"

[[record]]
structure_notation = "N#Cc1cnc2c(C(F)(F)F)cc(NCc3ccccc3F)cc2c1Nc1ccc(F)c(Cl)c1"
experimental_target = "human Cot/Tpl2 kinase (Homo sapiens, UniProt P41279)"
answer_label = "class 3"

[[record]]
structure_notation = "N#Cc1cnc2ccc(NCc3cccnc3)cc2c1Nc1cccc(Cl)c1"
experimental_target = "human Cot/Tpl2 kinase (Homo sapiens, UniProt P41279)"
answer_label = "class 1"

[[record]]
structure_notation = "N#Cc1cnc2ccc(NCc3cc4ccccc4[nH]3)cc2c1Nc1ccc(F)c(Cl)c1"
experimental_target = "human Cot/Tpl2 kinase (Homo sapiens, UniProt P41279)"
answer_label = "class 3"

[[record]]
structure_notation = "Cc1cc2ncc(C#N)c(Nc3ccc(F)c(Cl)c3)c2cc1NCc1cnc[nH]1"
experimental_target = "human Cot/Tpl2 kinase (Homo sapiens, UniProt P41279)"
answer_label = "class 3"

[[record]]
structure_notation = "N#Cc1cnc2ccc(NCc3cccc[n+]3[O-])cc2c1Nc1ccc(F)c(Cl)c1"
experimental_target = "human Cot/Tpl2 kinase (Homo sapiens, UniProt P41279)"
answer_label = "class 1"

[[record]]
structure_notation = "CN(C)CCN1CCN(c2cc3ncc(C#N)c(Nc4ccc(F)c(Cl)c4)c3cc2NCc2cnc[nH]2)CC1"
experimental_target = "human Cot/Tpl2 kinase (Homo sapiens, UniProt P41279)"
answer_label = "class 3"


###

Molecular target: human Cot/Tpl2 kinase (Homo sapiens, UniProt P41279)
Construct: human Cot/Tpl2 kinase construct encoding residues 30-398; 6His (N); made in house; host or cells: Sf9 insect cells, baculovirus system (BD Biosciences)
Assay: Tpl2/Cot kinase assay: GST-MEK1 phosphorylation detected by ELISA (DELFIA Eu)
Format: biochemical
Settings: Tpl2/Cot kinase, GST-MEK1 substrate, 50 uM ATP, 1 h at 30° C.; Table 2
Entries get a class label from measured IC50. See ranges: low bracket: < 400 nM; middle bracket: ≥ 400 nM and < 600 nM; high bracket: ≥ 600 nM

[[record]]
compound = "N#Cc1cnc2c(Cl)cc(NCC3CCCN(C(=O)CNc4cccnc4)C3)cc2c1Nc1ccc(F)c(Cl)c1 (stereo not drawn) [Example 923]"
experimental_target = "human Cot/Tpl2 kinase (Homo sapiens, UniProt P41279)"
answer_label = "middle bracket"

[[record]]
compound = "CC(C)N1CCN(CCn2cc(CNc3cc(Cl)c4ncc(C#N)c(Nc5ccc(F)c(Cl)c5)c4c3)nn2)CC1 [Example 965]"
experimental_target = "human Cot/Tpl2 kinase (Homo sapiens, UniProt P41279)"
answer_label = "middle bracket"

[[record]]
compound = "N#Cc1cnc2c(Cl)cc(NC[C@H]3C[C@H](OCc4cccnc4)CO3)cc2c1Nc1ccc(F)c(Cl)c1 [Example 939]"
experimental_target = "human Cot/Tpl2 kinase (Homo sapiens, UniProt P41279)"
answer_label = "high bracket"

[[record]]
compound = "CS(=O)(=O)N1C2CCC1CC(n1cc(CNc3cc(Cl)c4ncc(C#N)c(Nc5ccc(F)c(Cl)c5)c4c3)nn1)C2 (stereo not drawn) [Example 1050]"
experimental_target = "human Cot/Tpl2 kinase (Homo sapiens, UniProt P41279)"
answer_label = "low bracket"

[[record]]
compound = "CN1CCCC1CCn1cc(CNc2cc(Cl)c3ncc(C#N)c(NC4CCC4)c3c2)nn1 (stereo not drawn) [Example 951]"
experimental_target = "human Cot/Tpl2 kinase (Homo sapiens, UniProt P41279)"
answer_label = "middle bracket"

[[record]]
compound = "CN(C)CC#Cc1csc(CNc2cc(Cl)c3ncc(C#N)c(Nc4ccc(F)c(Cl)c4)c3c2)c1 [Example 1023]"
experimental_target = "human Cot/Tpl2 kinase (Homo sapiens, UniProt P41279)"
answer_label = "high bracket"

[[record]]
compound = "CC(C)CN1C2CCC1CC(n1cc(CNc3cc(Cl)c4ncc(C#N)c(Nc5ccc(F)c(Cl)c5)c4c3)nn1)C2 (stereo not drawn) [Example 1058]"
experimental_target = "human Cot/Tpl2 kinase (Homo sapiens, UniProt P41279)"
answer_label = "low bracket"

[[record]]
compound = "CC(C)N1CCC(c2cc(CNc3cc(Br)c4ncc(C#N)c(Nc5ccc(F)c(Cl)c5)c4c3)[nH]n2)CC1 [Example 1044]"
experimental_target = "human Cot/Tpl2 kinase (Homo sapiens, UniProt P41279)"
answer_label = "high bracket"

[[record]]
compound = "CC(C)N1CC=C(c2cncc(CNc3cc(Cl)c4ncc(C#N)c(Nc5ccc(F)c(Cl)c5)c4c3)c2)CC1 [Example 1054]"
experimental_target = "human Cot/Tpl2 kinase (Homo sapiens, UniProt P41279)"
answer_label = "high bracket"

[[record]]
compound = "N#Cc1cnc2c(Cl)cc(NCc3cn(CCC4CCN(CC5CC5)CC4)nn3)cc2c1Nc1ccc(F)c(Cl)c1 [Example 936]"
experimental_target = "human Cot/Tpl2 kinase (Homo sapiens, UniProt P41279)"
answer_label = "low bracket"

[[record]]
compound = "N#Cc1cnc2c(Cl)cc(NCc3cn(CCN4CCCCCC4)nn3)cc2c1NC1CCCCCC1 [Example 949]"
experimental_target = "human Cot/Tpl2 kinase (Homo sapiens, UniProt P41279)"
answer_label = "middle bracket"

[[record]]
compound = "Cc1cc(CNc2cc(Cl)c3ncc(C#N)c(Nc4ccc(F)c(Cl)c4)c3c2)no1 [Example 996]"
experimental_target = "human Cot/Tpl2 kinase (Homo sapiens, UniProt P41279)"
answer_label = "high bracket"

[[record]]
compound = "N#Cc1cnc2c(Cl)cc(NCc3cn(C4CCN(CC(O)CO)CC4)nn3)cc2c1Nc1ccc(F)c(Cl)c1 (stereo not drawn) [Example 994]"
experimental_target = "human Cot/Tpl2 kinase (Homo sapiens, UniProt P41279)"
answer_label = "low bracket"

[[record]]
compound = "N#Cc1cnc2c(Cl)cc(NCc3cn(C4CCNCC4)nn3)cc2c1NC1CCCC2(CCCC2)C1 (stereo not drawn) [Example 979]"
experimental_target = "human Cot/Tpl2 kinase (Homo sapiens, UniProt P41279)"
answer_label = "high bracket"

